Values from patent US20250281489A1

# TEST_SYSTEM: AKT1 kinase domain reconstituted with WT PH domain
# ASSAY_OVERVIEW: in vitro biochemical reconstitution assay, WT PH domain added to kinase domain
# DETAILS: reconstituted enzyme, WT PH domain + kinase domain
REPORTED_ENDPOINT: IC50 (nM)

{"SUBSTANCE_SMILES": "O=c1[nH]c2ccccc2n1C1CCN(Cc2ccc(-c3nc4cc5[nH]cnc5cc4nc3-c3ccccc3)cc2)CC1", "REPORTED_ENDPOINT": "IC50", "ASSAY_VALUE": 239}
